testTarget: Furin (Homo sapiens, UniProt P09958)
Sequence (P09958 whole entry): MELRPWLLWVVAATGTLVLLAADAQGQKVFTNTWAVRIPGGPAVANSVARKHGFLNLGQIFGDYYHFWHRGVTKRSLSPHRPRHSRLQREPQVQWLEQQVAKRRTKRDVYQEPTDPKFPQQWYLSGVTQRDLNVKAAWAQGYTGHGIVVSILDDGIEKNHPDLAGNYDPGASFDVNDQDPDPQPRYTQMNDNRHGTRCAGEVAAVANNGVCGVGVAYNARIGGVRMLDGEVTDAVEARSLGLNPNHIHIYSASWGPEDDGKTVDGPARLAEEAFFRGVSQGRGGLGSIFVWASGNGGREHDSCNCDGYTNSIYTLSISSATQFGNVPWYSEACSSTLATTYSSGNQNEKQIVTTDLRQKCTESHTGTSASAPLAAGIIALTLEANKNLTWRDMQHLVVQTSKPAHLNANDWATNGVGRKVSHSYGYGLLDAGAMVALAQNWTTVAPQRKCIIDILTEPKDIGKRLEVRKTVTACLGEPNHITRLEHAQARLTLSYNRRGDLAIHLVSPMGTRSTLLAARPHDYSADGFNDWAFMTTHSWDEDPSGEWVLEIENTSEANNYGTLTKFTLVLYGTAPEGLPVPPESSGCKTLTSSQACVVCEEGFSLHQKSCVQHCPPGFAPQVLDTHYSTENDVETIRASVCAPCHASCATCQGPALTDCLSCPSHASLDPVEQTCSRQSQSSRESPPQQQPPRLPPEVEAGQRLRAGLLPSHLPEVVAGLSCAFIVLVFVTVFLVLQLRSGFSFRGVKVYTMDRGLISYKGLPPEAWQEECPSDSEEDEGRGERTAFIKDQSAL
Non-standard residues stand in square brackets, D forms with d. Residues, ends and D or L forms follow the SMILES beside them. Sar = CNCC(=O)O
Overview of recorded Ki for various compounds

Here is how some compounds turned out for Ki.
- compound: "C[C@H](N)C(=O)N[C@@H](C)C(=O)N[C@@H](C)C(=O)N[C@@H](CCC(=O)O)C(=O)N[C@@H](CCCNC(=N)N)C(=O)N[C@@H](CCCNC(=N)N)C(=O)N[C@@H](CCCNC(=N)N)C(=O)N[C@@H](CCCCN)C(=O)N[C@@H](CCCCN)C(=O)N[C@@H](CCCNC(=N)N)C(=O)N(C)CC(=O)O (H-AAAERRRKKR[Sar]-OH)"
  Ki: "> 100 nM"
- compound: "C[C@H](NC(=O)[C@H](CCCN=C(N)N)NC(=O)[C@H](CCC(N)=O)NC(=O)[C@@H]1CCCN1C(=O)[C@@H](N)[C@@H](C)O)C(=O)N[C@@H](CCCN=C(N)N)C(=O)N[C@@H](CCCN=C(N)N)C(=O)N[C@@H](CCCN=C(N)N)C(=O)N[C@@H](CCCCN)C(=O)N[C@@H](CCCCN)C(=O)N[C@@H](CCCNC(N)=O)C(=O)NCC(=O)O"
  Ki: "> 100 nM"
- compound: "C[C@@H](O)[C@H](N)C(=O)N1CCC[C@H]1C(=O)N[C@@H](CCCN=C(N)N)C(=O)N[C@@H](CCCCN)C(=O)N[C@@H](CCCN=C(N)N)C(=O)N[C@@H](CCCN=C(N)N)C(=O)N[C@@H](CCCN=C(N)N)C(=O)N[C@@H](CCCCN)C(=O)N[C@@H](CCCCN)C(=O)N[C@@H](CCCN=C(N)N)C(=O)NCC(N)=O"
  Ki: "> 100 nM"
- compound: "C[C@H](NC(=O)[C@H](C)NC(=O)[C@@H](N)[C@@H](C)O)C(=O)N[C@@H](CCC(=O)O)C(=O)N[C@@H](CCCNC(=N)N)C(=O)N[C@@H](CCCNC(=N)N)C(=O)N[C@@H](CCCNC(=N)N)C(=O)N[C@@H](CCCCN)C(=O)N[C@@H](CCCCN)C(=O)N[C@@H](CCCNC(=N)N)C(=O)N(C)CC(=O)O (H-TAAERRRKKR[Sar]-OH)"
  Ki: "> 100 nM"

Ki reading for `C[C@@H](O)[C@H](N)C(=O)N1CCC[C@H]1C(=O)N[C@@H](CCC(N)=O)C(=O)N[C@@H](CCCN=C(N)N)C(=O)N[C@@H](CC1CCCCC1)C(=O)N[C@@H](CCCN=C(N)N)C(=O)N[C@@H](CCCN=C(N)N)C(=O)N[C@@H](CCCN=C(N)N)C(=O)N[C@@H](CCCCN)C(=O)N[C@@H](CCCCN)C(=O)N[C@@H](CCCNC(=N)N)C(=O)NCC(=O)O` : > 100 nM

Kindly note the recorded Ki for C[C@@H](O)[C@H](N)C(=O)N1CCC[C@H]1C(=O)N[C@@H](CCCNC(=N)N)C(=O)N[C@@H](CCC(=O)O)C(=O)N[C@@H](CCCNC(=N)N)C(=O)N[C@@H](CCCNC(=N)N)C(=O)N[C@@H](CCCNC(=N)N)C(=O)N[C@@H](CCCCN)C(=O)N[C@@H](CCCCN)C(=O)N[C@@H](CCCNC(=N)N)C(=O)N(C)CC(=O)O (H-TPRERRRKKR[Sar]-OH) , which is > 100 nM
